experiment: S. cerevisiae growth modulation with rapamycin, primary screen, strain BY4716, OD600, 96 h (AID 1091); further: test concentration not given here
testSettings: called active from +8 up or from −8 down
Activity calls are given as the source filed them.
Classes to choose from: TRUE = active, FALSE = inactive

Solved entries (count: 4):
CC(C)C[C@@H]1NC(=O)[C@H]2C[C@@H](C(=O)NCCCCCN)[C@@H](c3cccc(OCCO)c3)N2C1=O :: FALSE
Cc1ccc(S[C@]2(C(=O)NCc3ccccc3)CC(=O)N(Cc3cc(C(F)(F)F)cc(C(F)(F)F)c3)[C@@H]2c2ccc(CO)cc2I)cc1 :: FALSE
CN1C=C(C(=O)OCCS(C)(=O)=O)C(C(=O)OCCS(C)(=O)=O)=CC(c2ccc(CO)cc2)=CC1c1cccs1 (configuration not stated) :: FALSE
COC(=O)C1=CC(CCCO)=CC(C)N(Cc2cccc(OC(F)(F)F)c2)C=C1C(=O)OC (configuration not stated) :: FALSE

[Q] Per the records of this test, what outcome belongs to COC(=O)C(CC#Cc1ccc2c(c1)[C@]1(C(=O)N2)[C@H](C(=O)Nc2nc3ccccc3s2)[C@H]2C(=O)O[C@H](c3ccccc3)[C@H](c3ccccc3)N2[C@@H]1c1ccc(OCCO)cc1)C(=O)OC ?
[A] FALSE

[Q] Then what about the compound CO[C@H]1O[C@H](CO)[C@@H](OC(=O)Nc2ccc(C#N)cc2)[C@@H]2OC(=O)[C@H](Cc3cccc(Br)c3)C/C=C/C[C@@H](Cc3cccc(Br)c3)C(=O)O[C@@H]12 ?
[A] TRUE

[Q] Then what about the compound COc1cc(C(O)C2C=CC3C(=O)N(Cc4ccccc4)C(=O)C3N2n2cnnc2)cc(OC)c1OC (configuration not stated) ?
[A] FALSE
